- Test system: CCRF-CEM leukemia
- Measurement Protocol: NCI tumour cell line growth inhibition, 48 h
compounds and their reported TGI
Measurement Name: TGI

[
  {
    "Compound": "c1ccc2nc3cc4c(cc3nc2c1)NC12CCCCC1CC1=C(CCCC1)N42 (stereo unspecified)",
    "Obs Value": "4.9 µM"
  },
  {
    "Compound": "O=C(/C=C/c1ccc(F)c(F)c1)OCCc1ccccc1",
    "Obs Value": "> 100 µM"
  },
  {
    "Compound": "CCN1C(=O)N(CC)C2C1NN=c1s/c(=C\\c3ccccc3)c(=O)n12 (stereo unspecified)",
    "Obs Value": "> 100 µM"
  },
  {
    "Compound": "ClCC1(CCl)COC1",
    "Obs Value": "> 100 µM"
  },
  {
    "Compound": "COC(=O)Nc1nc2ccc(Sc3ccccc3)cc2[nH]1",
    "Obs Value": "> 100 µM"
  },
  {
    "Compound": "CC(=O)NNc1nc(C)c(C(/C=C/c2ccc(NC(C)=O)cc2)=N/NS(=O)(=O)c2ccc(C)cc2)s1",
    "Obs Value": "> 100 µM"
  }
]

###

- System: HS 578T breast
- Measurement Protocol: NCI tumour cell line growth inhibition, 48 h; in the data active means GI50 below about 0.43 µM; inactive means the rest
Outcome codes: 1 for active, 0 for inactive

[
  {
    "Compound": "COc1cnc2c(c1)C(=O)c1c-2n(CCCN2CCN(CCO)CC2)c(=O)c2cc([N+](=O)[O-])ccc12",
    "Test Target": "HS 578T breast",
    "Cat": 0
  },
  {
    "Compound": "CC[C@H](C)[C@H](NC(=O)C12CC(NC(C)=O)(C1)C2)C(=O)N(C)[C@H](C[C@@H](OC(C)=O)c1nc(C(=O)N[C@@H](Cc2ccccc2)C[C@H](C)C(=O)OC)cs1)C(C)C",
    "Test Target": "HS 578T breast",
    "Cat": 0
  },
  {
    "Compound": "CCOc1cc(/C=N\\NC(=O)N/N=C/c2ccc(O)c(OCC)c2)ccc1O",
    "Test Target": "HS 578T breast",
    "Cat": 0
  },
  {
    "Compound": "O=C(CC1(O)C(=O)Nc2c(Cl)ccc(Cl)c21)c1ccc(C2CC2)cc1 (stereo not drawn)",
    "Test Target": "HS 578T breast",
    "Cat": 0
  },
  {
    "Compound": "CCc1ccccc1-n1c(N)c(C#N)c(-c2ccc(OC)c(OC)c2)c(C#N)c1=O",
    "Test Target": "HS 578T breast",
    "Cat": 0
  },
  {
    "Compound": "Oc1[nH]c2ccc(Cl)cc2c1/C=c1/ccc2c(c1)N=C(c1cc(F)cc(F)c1)N=2",
    "Test Target": "HS 578T breast",
    "Cat": 0
  },
  {
    "Compound": "C=C1C(=O)OC2CC3(C)OC3C3OC3C3=CC(OC3=O)C12 (stereo not drawn)",
    "Test Target": "HS 578T breast",
    "Cat": 0
  },
  {
    "Compound": "CC(C)N(C[C@H]1O[C@@H](n2cnc3c(N)ncnc32)[C@H](O)[C@@H]1O)C1CC(CCc2nc3ccc(C(C)(C)C)cc3[nH]2)C1 (stereo partly drawn)",
    "Test Target": "HS 578T breast",
    "Cat": 0
  },
  {
    "Compound": "CCNCCNc1cc(-c2cccc(C(F)(F)F)c2)c(C#N)c2nc3ccccc3n12",
    "Test Target": "HS 578T breast",
    "Cat": 0
  },
  {
    "Compound": "CC[C@@]1(OC(=O)CN)C(=O)OCc2c1cc1n(c2=O)Cc2cc3c(N)c4c(cc3nc2-1)OCO4",
    "Test Target": "HS 578T breast",
    "Cat": 1
  },
  {
    "Compound": "CCCCCc1c(C)[nH]c(/C=c2\\[nH]/c(=C3/C=c4ccccc4=N3)cc2OC)c1C",
    "Test Target": "HS 578T breast",
    "Cat": 1
  },
  {
    "Compound": "N#CSCC(=O)c1ccc(Cl)cc1",
    "Test Target": "HS 578T breast",
    "Cat": 0
  },
  {
    "Compound": "ClC1=C(Cl)C(Cl)=C(Cl)C1=Cc1ccc(Cl)cc1",
    "Test Target": "HS 578T breast",
    "Cat": 0
  }
]
